B1: FAM164C (parent)
chain: YPHCTGISQQDPESDSQGQGNGLF

Variants of: B1
PROTOCOL NOTES: protein stability index of a GFP-peptide fusion (GPS, HEK-293T) (PSI 1-6); higher = more stable;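 further: lentivirally expressed fusions sorted by FACS into six bins by GFP to DsRed ratio, PSI derived from sequencing read proportions per bin multiplied by bin number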
APPLIED CONDITIONS: c terminus: a fixed tail appended
Is protein stability index at least 4? Then Fulfilled. If not, Not fulfilled.

QUERY: State whether the measured protein stability index reaches 4, counting equality as reaching it, for "E13T"
RESULT: Not fulfilled

QUERY: State whether the measured protein stability index reaches 4, counting equality as reaching it, for "E13H"
RESULT: Not fulfilled

QUERY: State whether the measured protein stability index reaches 4, counting equality as reaching it, for "G6H"
RESULT: Not fulfilled

QUERY: State whether the measured protein stability index reaches 4, counting equality as reaching it, for "Q10S"
RESULT: Not fulfilled

QUERY: State whether the measured protein stability index reaches 4, counting equality as reaching it, for "D11E"
RESULT: Fulfilled

QUERY: State whether the measured protein stability index reaches 4, counting equality as reaching it, for "Q10G"
RESULT: Not fulfilled

QUERY: State whether the measured protein stability index reaches 4, counting equality as reaching it, for "L23R"
RESULT: Fulfilled

QUERY: State whether the measured protein stability index reaches 4, counting equality as reaching it, for "Q17H"
RESULT: Not fulfilled

QUERY: State whether the measured protein stability index reaches 4, counting equality as reaching it, for "F24W"
RESULT: Not fulfilled

QUERY: State whether the measured protein stability index reaches 4, counting equality as reaching it, for "Q19H"
RESULT: Not fulfilled

QUERY: State whether the measured protein stability index reaches 4, counting equality as reaching it, for "F24D"
RESULT: Fulfilled

QUERY: State whether the measured protein stability index reaches 4, counting equality as reaching it, for "I7P"
RESULT: Fulfilled

QUERY: State whether the measured protein stability index reaches 4, counting equality as reaching it, for "F24V"
RESULT: Fulfilled

QUERY: State whether the measured protein stability index reaches 4, counting equality as reaching it, for "G22Q"
RESULT: Not fulfilled

QUERY: State whether the measured protein stability index reaches 4, counting equality as reaching it, for "T5E"
RESULT: Fulfilled

QUERY: State whether the measured protein stability index reaches 4, counting equality as reaching it, for "Q10C"
RESULT: Not fulfilled

QUERY: State whether the measured protein stability index reaches 4, counting equality as reaching it, for "Q9P"
RESULT: Not fulfilled

QUERY: State whether the measured protein stability index reaches 4, counting equality as reaching it, for "N21Y"
RESULT: Not fulfilled

QUERY: State whether the measured protein stability index reaches 4, counting equality as reaching it, for "D15C"
RESULT: Not fulfilled

QUERY: State whether the measured protein stability index reaches 4, counting equality as reaching it, for "G20L"
RESULT: Not fulfilled

QUERY: State whether the measured protein stability index reaches 4, counting equality as reaching it, for "L23A"
RESULT: Fulfilled

Value source: the supplement of paper PMC10567573
